For each entry below, report its growth value.
Test system: HS 578T breast
assayMethodText: NCI-60 one-dose screen, 48 h (100 = growth as untreated, 0 = no growth, -100 = all killed)
assaySetup: 10 µM
About 83,000 compounds went through this panel and 20% of them were active in at least one assay; those are over-represented in the sample as a whole.
Report only the number, with the unit % understood.

# get_value(readout='growth', item= "CC(=O)/C=C/c1ccc(OCc2ccc(Cl)cc2)cc1" ) 97.3

# get_value(readout='growth', item= "CC(=O)/C=C/c1ccc(N(C)Cc2ccc(C(C)(C)C)cc2)cc1" ) 87.1

# get_value(readout='growth', item= "COc1ccc(C(=O)/C=C/c2ccc(OCc3ccc(Cl)cc3)cc2)cc1OC" ) 93.5

# get_value(readout='growth', item= "CC(=O)/C=C/c1ccc(OCc2ccc(C(C)(C)C)cc2)cc1" ) 75.5

# get_value(readout='growth', item= "CCN(Cc1ccccc1)c1ccc(/C=C2\COc3ccccc3C2=O)cc1" ) 96

----------
Test system: IGROV1 ovarian
assayMethodText: NCI-60 one-dose screen, 48 h
assaySetup: 10 µM unless noted
Compounds without any hit were thinned out: in the full panel of roughly 83,000, 20% have a hit. The source made the active and inactive calls. How the source made its calls: active means growth percent below 10; inactive means the rest.
Valid outcomes are listed here; reply with one: active, inactive

What did this assay record as the result for "COc1ccc(/C=N/NC(=O)CN2CCN(c3cc4c(cc3F)c(=O)c(C(=O)O)cn4C3CC3)CC2)cc1O" ? inactive

What did this assay record as the result for "C[C@]12CCc3c(ccc4cc(O)ccc34)[C@@H]1C[C@H](O)[C@@H]2O" ? inactive

What did this assay record as the result for "COCCn1cc(-c2csc(-c3cn(C)c4ccc(F)cc34)n2)c2cccnc21" ? inactive

What did this assay record as the result for "CN1CCN(C(=O)OCc2nc3c(N4CCOCC4)nc(Cl)nc3n2C)CC1" ? active

What did this assay record as the result for "Cn1cc(-c2csc(-c3c[nH]c4ccc(F)cc34)n2)c2cnccc21" ? active

What did this assay record as the result for "N#CSc1c[nH]c2ccc(/C=C/C(=O)/C=C(/C=C/c3ccc4[nH]cc(SC#N)c4c3)OB(F)F)cc12" ? active

What did this assay record as the result for "Cc1ccc(NC(=O)N/C(N)=N/c2nc(=O)c3ccccc3s2)cc1" ? inactive

What did this assay record as the result for "CCNC(=O)Oc1ccc(/C(=C(/C)Cc2ccc(OC)cc2)c2ccc(OCCN(CC)CC)cc2)cc1" ? inactive

What did this assay record as the result for CN1C(=O)N(C)C2(c3ccccc3)N(CC(=O)Nc3ccccc3O)C(=O)NC12c1ccccc1 (centres undefined) ? inactive

----------
Test system: SF-295 CNS
assayMethodText: NCI-60 one-dose screen, 48 h
assaySetup: 10 µM unless noted
About 83,000 compounds went through this panel and 20% of them were active in at least one assay; those are over-represented in the sample as a whole. Calls of active or inactive are those of the source. How the source made its calls: active means growth percent below 10; inactive means the rest.
Valid outcomes are listed here; reply with one: yes (active), no (inactive)

What did this assay record as the result for "S=c1nc(CS)[nH]c2ccccc12" ? no

What did this assay record as the result for COc1ccc(C2Nc3nc(SC)nc(N)c3N=C3c4ccccc4CCC32)cc1 (configuration not stated) ? no

What did this assay record as the result for "N#CSc1c[nH]c2ccc(/C=C/C(=O)/C=C(/C=C/c3ccc4[nH]cc(SC#N)c4c3)OB(F)F)cc12" ? no

What did this assay record as the result for "c1ccc(-c2cc(-c3cc(-c4ccccc4)on3)no2)cc1" ? no

What did this assay record as the result for "COc1ccc(NC(=O)Nc2ccccc2CNc2nc(Nc3ccc(OCCN4CCCC4)cc3)ncc2Cl)cc1" ? no

What did this assay record as the result for "CN1CCN(CCNC(=O)c2cccc(CN3c4cccc5c4C(=Cc4cccnc43)N(C)C5=O)c2)CC1" ? no

What did this assay record as the result for CCN1C(=O)/C(=c2\sc3n(c2=O)C2C(NN=3)N(CC)C(=O)N2CC)c2ccccc21 (configuration not stated) ? yes

What did this assay record as the result for "O=C(/C=C/c1cccs1)Nc1ncc(Cc2ccc(Cl)c(Cl)c2)s1" ? no

What did this assay record as the result for CCOC(=O)CC1CSC(c2cccc(Cl)c2)=N1 (configuration not stated) ? no

What did this assay record as the result for "CCN1CCN(CC(=O)Nc2nc3ccc(NCc4ccc(C)cc4)cc3s2)CC1" ? no

What did this assay record as the result for "C[C@@H]1O[C@@H](O[C@H]2[C@@H](OC(=O)[C@]34CCC(C)(C)C[C@H]3C3=CC[C@@H]5[C@@]6(C)C[C@H](O)[C@H](O[C@@H]7O[C@H](CO)[C@@H](O)[C@H](O)[C@H]7O)[C@@](C)(CO)[C@@H]6CC[C@@]5(C)[C@]3(C)C[C@H]4O)OC[C@@H](O)[C@@H]2O)[C@H](O)[C@H](O[C@@H]2OC[C@@H](O)[C@H](O[C@@H]3OC[C@](O)(CO)[C@H]3O[C@@H]3OC[C@@H](O)[C@H](O)[C@H]3O)[C@H]2O)[C@H]1O[C@@H]1OC[C@](O)(CO)[C@H]1O" ? no

What did this assay record as the result for "COc1cc(C=O)ccc1Oc1ccc([N+](=O)[O-])cc1[N+](=O)[O-]" ? no

What did this assay record as the result for "Cc1ccc(/C=C(\C#N)c2cc3ccccc3[nH]2)cc1" ? no

What did this assay record as the result for "COc1cc(/C=C2\CCC/C(=C\c3cc(CN4CCCC4)c(O)c(OC)c3)C2=O)cc(CN2CCCC2)c1O" ? no

What did this assay record as the result for "CCNC(=O)Nc1ncccc1OCc1ccc(F)cc1" ? no

What did this assay record as the result for "CCOC(=O)n1cc(-c2nonc2-c2cn(C)c3ccc(OC)cc23)c2cc(F)ccc21" ? no

What did this assay record as the result for "Nc1ccc(/C=N/Nc2ccnc3c(N)cccc23)c2cccnc12" ? yes

What did this assay record as the result for "O=C(Nc1ccc(Cl)c(Cl)c1)Nc1ccc(Cl)c(Cl)c1" ? yes

What did this assay record as the result for "C[N+]1=C(/C=C\C=C\c2ccccc2)C(C)(C)c2ccccc21" ? no

What did this assay record as the result for "COc1ccc(-c2cc(-c3cc(OC)c(OC)c(OC)c3)c(C#N)c(=O)n2CCCCC(=O)O)cc1" ? no

What did this assay record as the result for "COC(=O)c1nc(-c2ccccc2)oc1S(=O)(=O)N(C)CCO" ? no

What did this assay record as the result for "CS(=O)(=O)Nc1cc(-c2ccc3ncnc(Nc4ccc(F)c(Cl)c4)c3c2)cnc1Cl" ? yes

What did this assay record as the result for "CN1CCN(c2ccc(/C=C/C(=O)c3ccc(O)cc3)cc2)CC1" ? no

What did this assay record as the result for "O=C1C(Nc2ccc(Cl)cc2)=C(I)C(=O)c2ncccc21" ? no

What did this assay record as the result for "CCN(CC)CC(=O)Nc1ccc2ncnc(Nc3ccc(Oc4cccc(F)c4)c(Cl)c3)c2c1" ? no

What did this assay record as the result for "N=C(N)SCc1c2ccccc2c(CSC(=N)N)c2ccccc12" ? no

What did this assay record as the result for "O=[N+]([O-])c1cc(C(F)(F)F)ccc1Sc1ccc(C(F)(F)F)cc1[N+](=O)[O-]" ? no

What did this assay record as the result for "Cc1ccc(NC(=O)N/C(N)=N/c2nc(=O)c3ccccc3s2)cc1" ? no

What did this assay record as the result for "O=C([C@H]1C[C@H]1c1ccc(S(F)(F)(F)(F)F)cc1)N1CCN(c2cc(Cl)ccc2C(F)(F)F)CC1" ? no

What did this assay record as the result for "COc1ccc(-c2nc(Cl)c3c(C)nn(-c4ccc(F)cc4)c3n2)cc1" ? no

What did this assay record as the result for "O=c1ccc2nc(-c3ccccn3)nn(-c3ccccc3)c-2c1" ? no

What did this assay record as the result for "N=c1c2c(-c3ccccc3)c(-c3ccccc3)oc2ncn1NC(=O)c1cccnc1" ? no

What did this assay record as the result for "COc1cc(/C=C(/c2ccccc2)[N+](=O)[O-])c(OC)c2c1OCO2" ? no

What did this assay record as the result for "COc1ccc(C(=O)N/N=C/c2ccc(O)cc2O)cc1Nc1ccnc(C(F)(F)F)c1" ? no

What did this assay record as the result for Cc1c(O)c(O)cc2c3c(oc12)CC(c1ccc2c(c1)OCO2)CC3=O (configuration not stated) ? no

What did this assay record as the result for "Cc1ccc(C(=O)Nc2nc3c(s2)CN(Cc2ccccc2)CC3)cn1" ? no

What did this assay record as the result for "COc1ccc(-c2ccc(-c3ccc(C(=N)N)cn3)o2)cc1Cl" ? no

Cited source for all entries: PubChem BioAssay (NCI)
